Target: P. falciparum apicoplast DNA polymerase (Pf-apPOL) (Plasmodium falciparum, UniProt Q8ILY1)
Sequence (Q8ILY1 entry or part of it): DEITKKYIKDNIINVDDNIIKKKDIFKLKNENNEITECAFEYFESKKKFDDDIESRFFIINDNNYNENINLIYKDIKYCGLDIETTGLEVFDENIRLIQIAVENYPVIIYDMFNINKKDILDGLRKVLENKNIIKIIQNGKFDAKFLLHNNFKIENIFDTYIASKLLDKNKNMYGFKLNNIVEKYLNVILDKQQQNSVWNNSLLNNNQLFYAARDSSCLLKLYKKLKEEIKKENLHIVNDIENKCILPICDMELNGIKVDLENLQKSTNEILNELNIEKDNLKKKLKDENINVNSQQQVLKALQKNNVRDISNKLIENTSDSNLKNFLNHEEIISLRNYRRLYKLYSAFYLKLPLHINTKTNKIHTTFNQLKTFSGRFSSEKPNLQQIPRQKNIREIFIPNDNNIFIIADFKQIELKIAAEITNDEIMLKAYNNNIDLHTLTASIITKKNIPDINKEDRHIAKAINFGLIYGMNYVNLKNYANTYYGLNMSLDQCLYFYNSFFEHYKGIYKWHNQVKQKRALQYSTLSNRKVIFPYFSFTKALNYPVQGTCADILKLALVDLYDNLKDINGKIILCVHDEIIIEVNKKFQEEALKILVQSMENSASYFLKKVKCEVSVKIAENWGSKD
Assay: Fluorescence-based high-throughput DNA polymerase assay (molecular beacon), primary screen and dose-response;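 note: test concentration in µM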
Type: biochemical
Conditions: DRC-2, 180', concentration 40
Rule: % inhibition apPOL 180' under 30% gives 0, otherwise 1.

| MOLECULE | GROUP_LABEL |
| --- | --- |
| CN(C)C=CC(=O)c1ccccn1 [Molecule 64, CN(C=CC(=O)c1ccccn1)C] | 1 |
| CSC(C)C(=O)C=CN(C)C (centres unmarked) [Molecule 71, CSC(C(=O)C=CN(C)C)C] | 1 |
| Oc1ccc(N=Nc2ccccc2)c(O)c1 [Molecule 80, Oc1ccc(c(c1)O)N=Nc1ccccc1] | 0 |
| O=[N+]([O-])c1cc2c(cc1CN1CCN(c3cccc(Cl)c3)CC1)OCO2 [KU0005610] | 1 |

# evaluate next
Determine whether this molecule has % inhibition apPOL 180' no lower than 30%: Cc1nn(CC(=O)NCCSCc2ccco2)c(C)c1Br [KU0267182]
0
